TEST_SYSTEM: cholinesterase (Rattus norvegicus)
Construct: the S1 fraction of the cerebral cortex homogenate from male Wistar rats was used as cholinesterase source; from tissue; host or cells: cerebral cortex homogenate, S1 fraction, male Wistar rats
Sequence (P37136 32-614): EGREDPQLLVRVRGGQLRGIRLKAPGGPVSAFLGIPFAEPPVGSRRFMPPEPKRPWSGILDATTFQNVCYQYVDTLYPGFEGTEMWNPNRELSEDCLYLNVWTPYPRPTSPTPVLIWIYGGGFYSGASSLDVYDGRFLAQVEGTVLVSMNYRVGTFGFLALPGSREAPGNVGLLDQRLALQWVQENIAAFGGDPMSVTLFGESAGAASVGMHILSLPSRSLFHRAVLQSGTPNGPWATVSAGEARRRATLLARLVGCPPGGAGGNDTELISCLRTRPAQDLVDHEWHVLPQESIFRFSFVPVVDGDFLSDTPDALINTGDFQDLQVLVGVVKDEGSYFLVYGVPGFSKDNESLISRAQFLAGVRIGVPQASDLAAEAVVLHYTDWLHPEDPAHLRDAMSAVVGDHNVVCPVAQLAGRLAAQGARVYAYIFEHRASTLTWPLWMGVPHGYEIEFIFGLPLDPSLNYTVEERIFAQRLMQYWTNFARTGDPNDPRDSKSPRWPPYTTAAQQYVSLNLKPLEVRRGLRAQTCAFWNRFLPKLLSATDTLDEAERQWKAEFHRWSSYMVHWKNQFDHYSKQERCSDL
METHOD: Anti-cholinesterase action, (acetyl-[^3 H])-acetylcholine as substrate, S1 fraction of cerebral cortex homogenate
Format: biochemical, male Wistar rats
CONDITION_SUMMARY: Anticholinesterase activity IC50, 30 minutes incubation
REPORTED_ENDPOINT: IC50 (nM)
Numbers only, in nM.

Ask: # input compound: O=C(CCC1CCN(Cc2ccccc2)CC1)c1ccc(N2CCCC2)cc1 ; wanted: its IC50
Result: 27

* * *

Exercise: state measured response vs control in vivo at 2 mg/kg for each of the compounds provided.
METHOD: Antihypoxic action: survival time of mice in a decompressed desiccator
Type: in vivo, Male mice (ICR/Jcl strain)
CONDITION_SUMMARY: Mus musculus, ip, read-out: survival time of drug-treated group (mean survival time of control group = 100)
Where a name gives a salt, the structure may show the parent alone.
Give bare numbers, in %.

Quick one: give me response vs control in vivo at 2 mg/kg for each item below, same order please.
1. OC(c1ccc(N2CCCCC2)cc1N1CCCCC1)C1CCNCC1 (centres unmarked)
2. CN(C)c1ccc(CC2CCNCC2)cc1 [Example 20, dihydrochloride]
3. c1cc(N2CCCCC2)ccc1CC1CCNCC1 [Example 21-1, dihydrochloride]
4. O=C(c1ccc(N2CCN(Cc3ccccc3)CC2)cc1)C1CCNCC1
5. OC(c1ccc(N2CCN(Cc3ccccc3)CC2)cc1)C1CCNCC1 (centres unmarked)
6. OC(c1ccncc1)c1ccc(N2CCCCC2)cc1 (centres unmarked) [Example 12, dihydrochloride]

Result:
1: 143; 2: 118; 3: 231; 4: 288; 5: 188; 6: 163

Please report response vs control in vivo at 2 mg/kg for every entry that follows.
1. OC(c1ccc(N2CCC(Cc3ccccc3)CC2)cc1)C1CCNCC1 (centres unmarked)
2. c1ccc(CC2CCN(c3ccc(CC4CCNCC4)cc3)CC2)cc1

Result:
[137, 147]
